Where do the numbers come from? From patent US12606543B2.

experiment: Pharmacokinetic studies in rat (i.v.); assay type: in vivo; details: male, Sprague-Dawley, plasma, iv, rat plasma, i.v., dose per Dose column, estimated from 2 points only, second animal (R08/R05/R02/R11), read-out: Apparent t1/2 (converted)
Overview of recorded half-life for various molecules

molecule	half-life
[2H]C([2H])(c1c[nH]c2ccc(OCCCCN3C(=O)c4ccccc4C3=O)cc12)[C@H]1CCCN1C([2H])([2H])[2H] [(R) I-244]	60 min
COCCN1CCC[C@@H]1Cc1c[nH]c2ccc(OC)cc12 [(R) I-98]	29.9 min
[2H]C([2H])(c1c[nH]c2ccc(OCCCCCN3C(=O)C4CCCCC4C3=O)cc12)[C@H]1CCCN1C([2H])([2H])[2H] (mixture of isomers) [Rac (R) I-248]	44.8 min
[2H]C([2H])(c1c[nH]c2ccc(OCCCCCN3C(=O)c4ccccc4C3=O)cc12)[C@H]1CCCN1C([2H])([2H])[2H] [(R) I-245]	123 min

* * *

Target: human 5-HT2A receptor (Homo sapiens)
Construct: expressed in transfected cells; host or cells: U2OS
Sequence (P28223 whole entry): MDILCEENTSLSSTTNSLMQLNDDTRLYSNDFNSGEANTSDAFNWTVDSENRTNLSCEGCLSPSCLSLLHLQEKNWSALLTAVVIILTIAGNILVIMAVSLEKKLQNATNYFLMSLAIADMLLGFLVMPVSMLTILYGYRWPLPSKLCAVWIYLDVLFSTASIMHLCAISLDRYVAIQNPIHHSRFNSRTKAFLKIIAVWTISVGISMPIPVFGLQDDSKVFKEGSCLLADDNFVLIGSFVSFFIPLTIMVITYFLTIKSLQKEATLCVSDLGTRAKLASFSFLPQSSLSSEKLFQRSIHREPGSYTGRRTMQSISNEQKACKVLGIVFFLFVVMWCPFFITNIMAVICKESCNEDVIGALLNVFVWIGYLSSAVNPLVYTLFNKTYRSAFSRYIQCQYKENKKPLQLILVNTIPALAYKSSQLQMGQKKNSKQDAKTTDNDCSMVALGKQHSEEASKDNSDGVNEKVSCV
Experiment: Human 5-HT2A β-arrestin reporter assay
Assay type: cell-based
Procedure: Compound potency (EC50) and efficacy (Max response) against the human 5-HT2A receptor in stably transfected U2OS cells were determined in a G protein-coupled receptors (GPCR) cell based β-arrestin reporter assay. Cells were seeded in a total volume of 20 μL into white walled, 384-well microplates and incubated at 37° C. overnight before analysis. […] The results are expressed as percent efficacy relative to the maximum response of the control ligand (serotonin) in Table 10. […]
pEC50: −log10 of the molar value.
result-type: pEC50

                                   compound  value_observed
0  CSc1ccc2[nH]cc(C[C@H]3CCCN3C)c2c1 [(R) I-1]            7.60

* * *

assay: Pharmacokinetic studies in rat (i.v.); format: in vivo; conditions: male, Sprague-Dawley, plasma, iv, 1.19 mg/kg, rat plasma, i.v., dose 1.19 mg/kg, 0.25 h, mean of 3 rats, read-out: Plasma concentration, Mean ± SD
result-type: concentration at 0.25 h (ng/mL)

                                   compound  unit_descriptor  value_observed
0  CSc1ccc2[nH]cc(C[C@H]3CCCN3C)c2c1 [(R) I-1]            ng/mL             109

* * *

experiment: Pharmacokinetic studies in rat (i.v.); type: in vivo; conditions: male, Sprague-Dawley, plasma, intravenous, dose per Dose column (1.32-2.09 mg/kg), 0.25 h, mean of 3 rats, read-out: Plasma concentration, Mean ± SD

molecule	concentration at 0.25 h
[2H]C([2H])(c1c[nH]c2ccc(OCCCCCN3C(=O)c4ccccc4C3=O)cc12)[C@H]1CCCN1C([2H])([2H])[2H] [(R) I-245]	178 ng/mL
[2H]C([2H])(c1c[nH]c2ccc(OCCCCN3C(=O)c4ccccc4C3=O)cc12)[C@H]1CCCN1C([2H])([2H])[2H] [(R) I-244]	292 ng/mL
[2H]C([2H])(c1c[nH]c2ccc(OCCCCCN3C(=O)C4CCCCC4C3=O)cc12)[C@H]1CCCN1C([2H])([2H])[2H] (mixture of isomers) [Rac (R) I-248]	377 ng/mL
COCCN1CCC[C@@H]1Cc1c[nH]c2ccc(OC)cc12 [(R) I-98]	446 ng/mL

* * *

test: Pharmacokinetic studies in rat (i.v.); format: in vivo; conditions: male, Sprague-Dawley, plasma, iv, 1.19 mg/kg, rat plasma, i.v., dose 1.19 mg/kg, 4 h, mean of 3 rats, read-out: Plasma concentration, Mean ± SD
result-type: concentration at 4 h (ng/mL)

>>> df
                                   compound           result_type  value_observed
0  CSc1ccc2[nH]cc(C[C@H]3CCCN3C)c2c1 [(R) I-1]  concentration at 4 h            3.96

* * *

Overview of recorded microsomal CLint at 2 μM for various molecules
test: Liver microsomes stability, human; type: in vitro ADME; details: human liver microsomes, 2 μM compound, 0.5 mg/mL microsomes

molecule	unit-descriptor	measurement-qualifier	microsomal CLint at 2 μM
COCCN1CCC[C@@H]1Cc1c[nH]c2ccc(OC)cc12 [(R) I-98]	µL/min/mg	=	21.6
[2H]C([2H])(c1c[nH]c2ccc(OCCCCCN3C(=O)c4ccccc4C3=O)cc12)[C@H]1CCCN1C([2H])([2H])[2H] [(R) I-245]	µL/min/mg	=	115
[2H]C([2H])(c1c[nH]c2ccc(OCCCCN3C(=O)c4ccccc4C3=O)cc12)[C@H]1CCCN1C([2H])([2H])[2H] [(R) I-244]	µL/min/mg	=	232
[2H]C([2H])(c1c[nH]c2ccc(OCCCCCN3C(=O)C4CCCCC4C3=O)cc12)[C@H]1CCCN1C([2H])([2H])[2H] (mixture of isomers) [Rac (R) I-248]	µL/min/mg	>	307

* * *

experiment: Pharmacokinetic studies in rat (i.v.); assay type: in vivo; conditions: male, Sprague-Dawley, plasma, iv, 1.19 mg/kg, rat plasma, i.v. 1.19 mg/kg, rat R03, read-out: AUC0-tlast, R03
result-type: AUC(0-t) (ng·h/mL)

In [3]: df
Out[3]:
                                   molecule  value_observed
0  CSc1ccc2[nH]cc(C[C@H]3CCCN3C)c2c1 [(R) I-1]             147

* * *

Overview of recorded Remaining Percentage for various molecules
test: Liver microsomes stability, human; assay type: in vitro ADME; details: human liver microsomes, Without Cofactors, 60 min

molecule	unit-descriptor	Remaining Percentage
[2H]C([2H])(c1c[nH]c2ccc(OCCCCCN3C(=O)c4ccccc4C3=O)cc12)[C@H]1CCCN1C([2H])([2H])[2H] [(R) I-245]	%	98.91
[2H]C([2H])(c1c[nH]c2ccc(OCCCCCN3C(=O)C4CCCCC4C3=O)cc12)[C@H]1CCCN1C([2H])([2H])[2H] (mixture of isomers) [Rac (R) I-248]	%	98.60
COCCN1CCC[C@@H]1Cc1c[nH]c2ccc(OC)cc12 [(R) I-98]	%	98.21
[2H]C([2H])(c1c[nH]c2ccc(OCCCCN3C(=O)c4ccccc4C3=O)cc12)[C@H]1CCCN1C([2H])([2H])[2H] [(R) I-244]	%	88.07
COc1ccc2[nH]cc(CCN(C)C)c2c1	%	3.00
O=C(O)Cc1ccccc1Nc1c(Cl)cccc1Cl	%	96.67

* * *

experiment: Liver microsomes stability, mouse; format: in vitro ADME; conditions: male; mouse liver microsomes; read-out: Scaled-up CLint
Overview of recorded CLint scaled at 2 μM for various compounds

compound	CLint scaled at 2 μM
[2H]C([2H])(c1c[nH]c2ccc(OCCCCCN3C(=O)C4CCCCC4C3=O)cc12)[C@H]1CCCN1C([2H])([2H])[2H] (mixture of isomers) [Rac (R) I-248]	> 1340 mL/min/kg
[2H]C([2H])(c1c[nH]c2ccc(OCCCCN3C(=O)c4ccccc4C3=O)cc12)[C@H]1CCCN1C([2H])([2H])[2H] [(R) I-244]	> 1340 mL/min/kg
CSc1ccc2[nH]cc(C[C@H]3CCCN3C)c2c1 [(R) I-1]	> 1340 mL/min/kg
